pIC50: −log10 of the molar value.
// values below are pIC50; system is UniProtKB P00533
Sequence (P00533 whole entry): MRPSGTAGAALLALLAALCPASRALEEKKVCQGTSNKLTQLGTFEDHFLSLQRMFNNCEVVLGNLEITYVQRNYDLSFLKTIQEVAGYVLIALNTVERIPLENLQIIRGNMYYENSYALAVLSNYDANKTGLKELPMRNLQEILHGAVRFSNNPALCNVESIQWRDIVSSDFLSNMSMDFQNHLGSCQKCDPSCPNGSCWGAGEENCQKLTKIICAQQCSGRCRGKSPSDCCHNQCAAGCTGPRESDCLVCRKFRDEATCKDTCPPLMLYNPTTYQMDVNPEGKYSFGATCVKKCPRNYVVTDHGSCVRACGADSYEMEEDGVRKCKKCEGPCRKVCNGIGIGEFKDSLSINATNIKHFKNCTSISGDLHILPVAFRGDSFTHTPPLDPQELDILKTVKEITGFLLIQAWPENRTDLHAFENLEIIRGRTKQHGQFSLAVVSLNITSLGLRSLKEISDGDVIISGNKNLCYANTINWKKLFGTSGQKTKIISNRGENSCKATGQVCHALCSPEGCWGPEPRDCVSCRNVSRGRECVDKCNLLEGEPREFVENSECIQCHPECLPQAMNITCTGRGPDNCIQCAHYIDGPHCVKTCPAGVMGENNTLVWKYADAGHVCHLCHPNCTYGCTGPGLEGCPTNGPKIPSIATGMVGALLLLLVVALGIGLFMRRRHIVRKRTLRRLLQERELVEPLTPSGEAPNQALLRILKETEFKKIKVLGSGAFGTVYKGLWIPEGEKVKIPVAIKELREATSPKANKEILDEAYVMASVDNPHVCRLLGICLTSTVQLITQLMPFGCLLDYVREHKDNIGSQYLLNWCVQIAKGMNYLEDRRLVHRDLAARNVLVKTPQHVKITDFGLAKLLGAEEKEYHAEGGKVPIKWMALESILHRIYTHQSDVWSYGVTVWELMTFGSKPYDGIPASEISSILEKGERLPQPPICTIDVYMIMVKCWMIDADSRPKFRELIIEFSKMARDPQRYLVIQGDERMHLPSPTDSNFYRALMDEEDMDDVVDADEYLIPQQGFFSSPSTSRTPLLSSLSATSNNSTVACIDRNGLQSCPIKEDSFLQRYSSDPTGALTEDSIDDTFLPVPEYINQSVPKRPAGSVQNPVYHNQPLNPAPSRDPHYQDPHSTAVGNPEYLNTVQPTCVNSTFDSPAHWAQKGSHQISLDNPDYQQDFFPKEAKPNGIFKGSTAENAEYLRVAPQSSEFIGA
ENDPOINT_NAME: pIC50

Would you please look over these solved cases?
INSERT INTO results (molecule, reading) VALUES
  ('COc1ccc(/C=C/C(=N/Nc2nncc3ccccc23)c2ccc(Cl)cc2)cc1', 8.27),
  ('Cc1cc(NS(=O)(=O)c2ccc(Nc3nncc4ccccc34)cc2)no1', 6.89),
  ('O=C1CS/C(=N/Nc2nncc3ccccc23)N1c1ccccc1', 7.35),
  ('Oc1cc(O)c2cc(O)c(-c3cc(O)c(O)c(O)c3)[o+]c2c1 [DELPHINIDIN CHLORIDE]', 8.20),
  ('Clc1ccc(/C=C/C(=N/Nc2nncc3ccccc23)c2ccccc2)cc1', 8.34);

A = NS(=O)(=O)c1ccc(Nc2nncc3ccccc23)cc1
B = S=C(NNc1nncc2ccccc12)Nc1ccc(Cl)cc1
C = Cc1ccc(C(/C=C/c2ccc(F)cc2)=N\Nc2nncc3ccccc23)cc1
D = N#Cc1ccc(Nc2nncc3ccccc23)cc1
E = CCCCN1C(=O)CS/C1=N/Nc1nncc2ccccc12
Rank order required: pIC50, descending. Please respond by ranking the labels in the order requested.
D, C, E, B, A
